I'd appreciate it if you could supply DC50 values for the items below.
subject of test: BRAF V600E (Homo sapiens, UniProt P15056, V600E)
Construct: endogenous C-terminal HiBiT fusion tag on BRAF V600E allele; endogenous in cells; host or cells: A375 clone 1F10 (CRISPR-Cas9 knock-in of the HiBiT tag; parental A375 from ATCC)
Sequence (P15056 whole entry V600E, the tested form may be a part): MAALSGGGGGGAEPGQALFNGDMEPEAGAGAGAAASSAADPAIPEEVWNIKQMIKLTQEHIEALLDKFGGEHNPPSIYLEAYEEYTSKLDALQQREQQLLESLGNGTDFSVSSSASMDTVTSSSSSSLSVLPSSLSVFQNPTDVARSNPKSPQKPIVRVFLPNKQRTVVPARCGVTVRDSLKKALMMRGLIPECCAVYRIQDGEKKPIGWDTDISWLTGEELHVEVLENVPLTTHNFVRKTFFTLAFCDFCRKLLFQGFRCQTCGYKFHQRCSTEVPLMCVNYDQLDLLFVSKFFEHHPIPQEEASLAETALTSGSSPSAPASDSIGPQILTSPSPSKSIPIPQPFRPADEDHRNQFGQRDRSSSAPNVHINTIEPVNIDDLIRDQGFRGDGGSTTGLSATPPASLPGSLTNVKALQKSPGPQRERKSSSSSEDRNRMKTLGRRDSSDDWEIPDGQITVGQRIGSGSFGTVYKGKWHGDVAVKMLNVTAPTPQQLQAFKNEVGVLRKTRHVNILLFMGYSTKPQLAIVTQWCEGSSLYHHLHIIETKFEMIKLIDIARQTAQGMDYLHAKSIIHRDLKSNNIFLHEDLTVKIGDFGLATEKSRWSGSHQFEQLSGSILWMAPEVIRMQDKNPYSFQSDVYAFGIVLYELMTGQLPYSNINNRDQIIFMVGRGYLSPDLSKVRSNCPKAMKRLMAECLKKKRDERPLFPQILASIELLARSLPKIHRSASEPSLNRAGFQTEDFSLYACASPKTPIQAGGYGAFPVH
test description: BRAF HiBiT degradation assay, C-terminal HiBiT-tagged BRAF V600E A375 cells (clone 1F10), Nano-Glo HiBiT Lytic assay
Format: cell-based
run parameters: A375 (BRAF V600E); DC50 at 50%: fitted conc. at Y=50

[in] Write down DC50 measured for item CCCS(=O)(=O)Nc1cccc(-c2nc(C(C)(C)C3CCN(C(=O)C4CN(C5CCN(c6ccc7c(c6)C(=O)N(C6CCC(=O)NC6=O)C7=O)CC5)C4)CC3)sc2-c2ccnc(N)n2)c1F (racemic) [Compound 243]
[out] 0.05 to 0.5 µM

[in] Write down DC50 measured for item CCN(C)S(=O)(=O)Nc1cccc(-c2nc(C(C)(C)C)sc2-c2ccnc(Nc3ccc(N4CCN(C(=O)CN5CCc6cc(C7CCC(=O)NC7=O)ccc6C5)CC4)c(F)c3)n2)c1F (racemic) [Compound 28]
[out] < 0.01 µM

[in] Write down DC50 measured for item CCCS(=O)(=O)Nc1cccc(-c2nc(C(C)(C)C)sc2-c2ccnc(Nc3ccc(C4CCN(C(=O)C5CCN(c6ccc(C7CCC(=O)NC7=O)cc6)CC5)CC4)cc3)n2)c1F (racemic) [Compound 37]
[out] 0.01 to 0.05 µM

[in] Write down DC50 measured for item CCCS(=O)(=O)Nc1cccc(-c2nc(C(C)(C)C)sc2-c2ccnc(Nc3ccc(C4CCN(CC5CCN(c6ccc(C7CCC(=O)NC7=O)cc6)CC5)CC4)cc3)n2)c1F (racemic) [Compound 167]
[out] 0.01 to 0.05 µM

[in] Write down DC50 measured for item CCCS(=O)(=O)Nc1cccc(-c2nc(C(C)(C)C)sc2-c2ccnc(NC3CC4(CCN(C(=O)CN5CCN(c6ccc7c(c6)C(=O)N(C6CCC(=O)NC6=O)C7=O)CC5)CC4)C3)n2)c1F (racemic) [Compound 132]
[out] 0.01 to 0.05 µM

FYI, the data here is from patent US20260317324A1.
